# measurement-protocol: Mouse microsomal stability (NADPH)
# Format: in vitro ADME
# condition-parameters: liver microsomes, read-out: Mouse MS Stability (NADPH) t1/2
experimental-endpoint: half-life

# input Entry Cc1nc(N2CCC[C@H]2C(=O)O)c2oc3ccccc3c2n1 [Compound 15] needs its half-life filled in; supply it.
# output > 2 h

###

# study-system: UniProt:Q8N884
# measurement-protocol: cGAS enzymatic assay (FP/TR-FRET detection of cGAMP)
# Type: biochemical
# Set-up: The cGAS assay was used to screen 100,000 compounds with full-length human cGAS; 6xHis; made in house
# condition-parameters: cGAS (30 nM); read-out: Inhibition cGAS
pIC50: −log10 of the molar value.
Recorded pIC50 for the following compounds

COc1nc(N2CCC[C@H]2C(=O)O)c2oc3ccccc3c2n1 ... 6.00 to 6.30
Cc1nc(N2C[C@@H](Nc3n[nH]cc3-c3ccccc3)CC2C(=O)O)c2oc3cc(F)ccc3c2n1 (stereo in doubt) ... 6.00 to 6.30
Cc1nc(N2C[C@@H](CC(=O)NC3CCCC3)C[C@H]2C(=O)O)c2oc3ccccc3c2n1 ... 6.30 to 7.00

# input Look up UniProt:Q8N884 data: pIC50 of Cc1nc(NCC(=O)O)c2oc3ccccc3c2n1 , then report it.
# output 5.00 to 6.00

# input Look up UniProt:Q8N884 data: pIC50 of O=C(O)CNc1nc(-c2ccccc2)nc2c1oc1ccccc12 , then report it.
# output 5.00 to 6.00

# input Look up UniProt:Q8N884 data: pIC50 of Cc1nc(N2CCC[C@H]2C(=O)O)c2oc3ccccc3c2n1 , then report it.
# output 6.00 to 6.30

# input Look up UniProt:Q8N884 data: pIC50 of Cc1nc(N2C[C@@H](Nc3n[nH]cc3C(C)C)C[C@H]2C(=O)O)c2oc3ccccc3c2n1 , then report it.
# output 6.30 to 7.00

# input Look up UniProt:Q8N884 data: pIC50 of Cc1nc(N2C[C@@H](N(C)c3n[nH]cc3C)C[C@H]2C(=O)O)c2oc3ccccc3c2n1 , then report it.
# output 5.00 to 6.00

###

Recorded IC50 for the following molecules
# study-system: cGAS (Homo sapiens)
# measurement-protocol: cGAS enzymatic assay (FP/TR-FRET detection of cGAMP)
# Format: biochemical
# Set-up: The cGAS assay was used to screen 100,000 compounds with full-length human cGAS; 6xHis; made in house
# condition-parameters: cGAS (30 nM); read-out: Inhibition cGAS

Cc1nc(N2C[C@@H](NC(=O)Cc3cn[nH]c3)C[C@H]2C(=O)O)c2oc3ccccc3c2n1 [Compound 32] ... 500 to 1000 nM

# input Entry Cc1nc(N2C[C@@H](NC(=O)c3ncc[nH]3)C[C@H]2C(=O)O)c2oc3ccccc3c2n1 [Compound 47] needs its IC50 filled in; supply it.
# output 1000 to 10000 nM

# input Entry Cc1nc(N2C[C@@H](Cc3nnn[nH]3)C[C@H]2CO)c2oc3ccccc3c2n1 [Compound 65] needs its IC50 filled in; supply it.
# output 1000 to 10000 nM

###

# System: IFNβ expression in THP-1 cells
# measurement-protocol: IFNβ ELISA in THP-1 cells
# Format: cell-based, human
# condition-parameters: Homo sapiens, read-out: Cellular IFNβ ELISA IC50
experimental-endpoint: pIC50
The meaning of pIC50 here: minus log10 of the concentration in molar units.

# input Entry Cc1nc(N2C[C@@H](CC(=O)Nc3ccncc3)C[C@H]2C(=O)O)c2oc3ccccc3c2n1 [Compound 28] needs its pIC50 filled in; supply it.
# output 4.89

###

Recorded IC50 for the following compounds
# study-system: cGAS (Homo sapiens, UniProt Q8N884)
# Sequence (Q8N884 whole entry): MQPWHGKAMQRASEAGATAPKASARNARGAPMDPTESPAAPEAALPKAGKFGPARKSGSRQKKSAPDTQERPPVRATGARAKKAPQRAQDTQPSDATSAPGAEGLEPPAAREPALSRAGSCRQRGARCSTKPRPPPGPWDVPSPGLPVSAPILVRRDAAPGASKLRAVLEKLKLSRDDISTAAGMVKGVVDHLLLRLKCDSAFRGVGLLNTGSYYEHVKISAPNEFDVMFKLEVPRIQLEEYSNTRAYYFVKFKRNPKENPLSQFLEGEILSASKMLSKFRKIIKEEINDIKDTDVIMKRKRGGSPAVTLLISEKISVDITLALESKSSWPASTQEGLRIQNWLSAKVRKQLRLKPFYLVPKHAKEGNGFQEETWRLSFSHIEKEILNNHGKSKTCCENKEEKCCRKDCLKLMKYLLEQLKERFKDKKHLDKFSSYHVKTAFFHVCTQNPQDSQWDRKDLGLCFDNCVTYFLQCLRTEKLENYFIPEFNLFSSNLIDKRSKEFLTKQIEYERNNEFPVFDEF
# measurement-protocol: cGAS enzymatic assay (FP/TR-FRET detection of cGAMP)
# Format: biochemical
# Design: The cGAS assay was used to screen 100,000 compounds with full-length human cGAS; 6xHis; made in house
# condition-parameters: cGAS (30 nM), with Mn^2+; read-out: Inhibition cGAS + Mn^2+

O=C(O)[C@@H]1CCCN1c1nc(-c2ccncc2)nc2c1oc1ccccc12 ... > 10 µM
O=C(O)[C@@H]1CCCN1c1ncnc2c1oc1ccccc12 [Compound 4, benzofuro[3,2-d]pyrimidin-4-yl-L-proline] ... > 10 µM

# input Entry Cc1nc(N2[C@H](C(=O)O)C[C@@H]3C[C@@H]32)c2oc3ccccc3c2n1 needs its IC50 filled in; supply it.
# output 1 to 10 µM

# input Entry Cc1nc(N2C[C@@H](Nc3n[nH]cc3C(C)C)C[C@H]2C(=O)O)c2oc3ccccc3c2n1 needs its IC50 filled in; supply it.
# output 1 to 10 µM

# input Entry CCc1nc(N2CCC[C@H]2C(=O)NS(=O)(=O)N(C)C)c2oc3ccccc3c2n1 needs its IC50 filled in; supply it.
# output > 10 µM

###

# measurement-protocol: Ksol (PBS, pH 7.4)
# Type: physicochemical
# condition-parameters: pH 7.4, aqueous buffer, kinetic from dmso stock
experimental-endpoint: solubility kinetic

# input Entry Cc1nc(N2CCC[C@H]2C(=O)O)c2oc3ccccc3c2n1 [Compound 15] needs its solubility kinetic filled in; supply it.
# output 520 µM

###

# Test system: MDR1 (P-glycoprotein)
# measurement-protocol: MDCK-MDR permeability
# Format: in vitro ADME, canine
# condition-parameters: dog, MDCK-MDR1
experimental-endpoint: efflux ratio
// keep it numeric: no unit symbol after the value

# input Entry Cc1nc(N2CCC[C@H]2C(=O)O)c2oc3ccccc3c2n1 needs its efflux ratio filled in; supply it.
# output 0.4

###

# measurement-protocol: Human microsomal stability (NADPH)
# Format: in vitro ADME
# condition-parameters: liver microsomes, read-out: Human MS Stability (NADPH) t1/2
experimental-endpoint: half-life

# input Entry Cc1nc(N2CCC[C@H]2C(=O)O)c2oc3ccccc3c2n1 needs its half-life filled in; supply it.
# output > 2 h

###

Recorded pIC50 for the following compounds
# study-system: cGAS (Homo sapiens)
# measurement-protocol: cGAS enzymatic assay (FP/TR-FRET detection of cGAMP)
# Type: biochemical
# Design: The cGAS assay was used to screen 100,000 compounds with full-length human cGAS; 6xHis; made in house
# condition-parameters: cGAS (30 nM), with Mn^2+; read-out: Inhibition cGAS + Mn^2+
pIC50: −log10 of the molar value.

O=C(O)[C@@H]1CCCN1c1nc(C2CCCCC2)nc2c1oc1ccccc12 ... < 5.00
C[C@H]1C[C@@H](C(=O)O)N(c2nc(-c3ccccc3)nc3c2oc2ccccc23)C1 ... < 5.00
O=C(O)[C@@H]1CCCN1c1nc(C2CCCC2)nc2c1oc1ccccc12 ... < 5.00
Cc1nc(N2CC[C@H]2C(=O)O)c2oc3ccccc3c2n1 ... 5.00 to 6.00

# evaluate next
# input Entry Cc1nc(NCC(=O)O)c2oc3ccccc3c2n1 needs its pIC50 filled in; supply it.
# output < 5.00

###

# study-system: cGAS (Homo sapiens, UniProt Q8N884)
# measurement-protocol: cGAS enzymatic assay (FP/TR-FRET detection of cGAMP)
# Type: biochemical
# Set-up: The cGAS assay was used to screen 100,000 compounds with full-length human cGAS; 6xHis; made in house
# condition-parameters: cGAS (30 nM); read-out: Inhibition cGAS
pIC50: −log10 of the molar value.
experimental-endpoint: pIC50

O=C(O)[C@@H]1CCCN1c1ncnc2c1oc1ccccc12 [Compound 4, benzofuro[3,2-d]pyrimidin-4-yl-L-proline] ... 5.00 to 6.00
Cc1nc(N2C[C@@H](NC(=O)Cc3cccnc3N)C[C@H]2C(=O)O)c2oc3ccccc3c2n1 [Compound 49] ... 6.00 to 6.30
CCc1nc(N(C)[C@@H](C)C(=O)O)c2oc3ccccc3c2n1 [Compound 17] ... 5.00 to 6.00
Cc1nc(N2C[C@@H](NC(=O)Cc3c[nH]cn3)C[C@H]2C(=O)O)c2oc3ccccc3c2n1 [Compound 40] ... 6.00 to 6.30

# evaluate next
# input Entry Cc1nc(N2C[C@@H](NC(=O)Cc3ccnc(C(N)=O)c3)C[C@H]2C(=O)O)c2oc3ccccc3c2n1 [Compound 50] needs its pIC50 filled in; supply it.
# output 6.00 to 6.30

###

# study-system: cGAS (Homo sapiens)
# measurement-protocol: cGAS enzymatic assay (FP/TR-FRET detection of cGAMP)
# Format: biochemical
# Set-up: The cGAS assay was used to screen 100,000 compounds with full-length human cGAS; 6xHis; made in house
# condition-parameters: cGAS (30 nM), with Mn^2+; read-out: Inhibition cGAS + Mn^2+
pIC50: −log10 of the molar value.
experimental-endpoint: pIC50

Known pIC50 results, listed for orientation:
Cc1nc(N2C[C@@H](NC(=O)C(C)(C)c3ccnc(C(F)(F)F)c3)C[C@H]2C(=O)O)c2oc3ccccc3c2n1 ... 5.00 to 6.00
Cc1nc(N2C[C@@H](NC(=O)C(C)(C)c3cn[nH]c3)C[C@H]2C(=O)O)c2oc3cc(F)ccc3c2n1 ... 5.00 to 6.00
CCc1nc(N2CCC[C@H]2C(=O)O)c2oc3ccccc3c2n1 [Compound 1] ... < 5.00
Cc1nc(N2C[C@@H](CC(=O)Nc3ccccc3)C[C@H]2C(=O)O)c2oc3ccccc3c2n1 ... 5.00 to 6.00
Cc1nc(N2CCC[C@H]2C(=O)O)c2oc3cc(F)ccc3c2n1 ... 5.00 to 6.00

# input Entry Cc1nc(N2C[C@@H](NC(=O)C(C)(C)c3cn[nH]c3)C[C@H]2C(=O)O)c2oc3ccccc3c2n1 needs its pIC50 filled in; supply it.
# output 5.00 to 6.00

# input Entry Cc1nc(N2C[C@@H](Nc3n[nH]cc3C3CC3)C[C@H]2C(=O)O)c2oc3ccccc3c2n1 needs its pIC50 filled in; supply it.
# output 5.00 to 6.00
